- target of assay: Phospholipase A2, membrane associated (Homo sapiens)
- Sequence (P14555 whole entry): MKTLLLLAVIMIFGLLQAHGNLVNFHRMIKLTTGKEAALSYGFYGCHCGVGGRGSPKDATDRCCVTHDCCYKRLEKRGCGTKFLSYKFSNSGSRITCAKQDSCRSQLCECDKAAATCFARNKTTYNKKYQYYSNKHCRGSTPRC
- test summary: Inhibition of human non-pancreatic secretory phospholipase A2 (PLA2) in a chromogenic assay
measure name: IC50 (nM)
# unit: nM | format: bare number

Consider the worked cases shown below.
// recorded IC50 for C=CCc1c(O)ccc2c1c(CC(N)=O)c(CC)n2Cc1ccccc1 : 143

// recorded IC50 for Cc1c(CC(=O)NN)c2cc(OCCCP(=O)([O-])[O-])ccc2n1Cc1ccccc1.[Na+].[Na+] : 462

Further cases:
// recorded IC50 for NC(=O)Cc1c(C2CC2)n(Cc2ccccc2)c2ccc(OCCCP(=O)(O)O)cc12 : 74

// recorded IC50 for CCc1c(CC(N)=O)c2cc(OCCCP(=O)(OC)OC)ccc2n1Cc1ccccc1 : 266

// recorded IC50 for Cc1c(CC(N)=O)c2cc(CCCC(=O)O)ccc2n1Cc1ccccc1 : 155

// recorded IC50 for NC(=O)Cc1cn(Cc2ccccc2)c2ccc(OCCCP(=O)(O)O)cc12 : 203

// recorded IC50 for CCc1c(CC(N)=O)c2cc(OCCCP(=O)(O)O)c(C(C)C)cc2n1Cc1ccccc1 : 40

// recorded IC50 for Cc1c(CC(N)=O)c2cc(NCCC(=O)O)ccc2n1Cc1ccccc1 : 3370

// recorded IC50 for CCc1c(CC(N)=O)c2cc(SCCCC(=O)O)ccc2n1Cc1ccccc1 : 23
